Data provenance is paper PMC4336329.

# TESTED_ON: human ether-à-go-go-related gene (hERG) potassium channel (human, UniProt Q12809)
# Sequence (Q12809 whole entry, looked up): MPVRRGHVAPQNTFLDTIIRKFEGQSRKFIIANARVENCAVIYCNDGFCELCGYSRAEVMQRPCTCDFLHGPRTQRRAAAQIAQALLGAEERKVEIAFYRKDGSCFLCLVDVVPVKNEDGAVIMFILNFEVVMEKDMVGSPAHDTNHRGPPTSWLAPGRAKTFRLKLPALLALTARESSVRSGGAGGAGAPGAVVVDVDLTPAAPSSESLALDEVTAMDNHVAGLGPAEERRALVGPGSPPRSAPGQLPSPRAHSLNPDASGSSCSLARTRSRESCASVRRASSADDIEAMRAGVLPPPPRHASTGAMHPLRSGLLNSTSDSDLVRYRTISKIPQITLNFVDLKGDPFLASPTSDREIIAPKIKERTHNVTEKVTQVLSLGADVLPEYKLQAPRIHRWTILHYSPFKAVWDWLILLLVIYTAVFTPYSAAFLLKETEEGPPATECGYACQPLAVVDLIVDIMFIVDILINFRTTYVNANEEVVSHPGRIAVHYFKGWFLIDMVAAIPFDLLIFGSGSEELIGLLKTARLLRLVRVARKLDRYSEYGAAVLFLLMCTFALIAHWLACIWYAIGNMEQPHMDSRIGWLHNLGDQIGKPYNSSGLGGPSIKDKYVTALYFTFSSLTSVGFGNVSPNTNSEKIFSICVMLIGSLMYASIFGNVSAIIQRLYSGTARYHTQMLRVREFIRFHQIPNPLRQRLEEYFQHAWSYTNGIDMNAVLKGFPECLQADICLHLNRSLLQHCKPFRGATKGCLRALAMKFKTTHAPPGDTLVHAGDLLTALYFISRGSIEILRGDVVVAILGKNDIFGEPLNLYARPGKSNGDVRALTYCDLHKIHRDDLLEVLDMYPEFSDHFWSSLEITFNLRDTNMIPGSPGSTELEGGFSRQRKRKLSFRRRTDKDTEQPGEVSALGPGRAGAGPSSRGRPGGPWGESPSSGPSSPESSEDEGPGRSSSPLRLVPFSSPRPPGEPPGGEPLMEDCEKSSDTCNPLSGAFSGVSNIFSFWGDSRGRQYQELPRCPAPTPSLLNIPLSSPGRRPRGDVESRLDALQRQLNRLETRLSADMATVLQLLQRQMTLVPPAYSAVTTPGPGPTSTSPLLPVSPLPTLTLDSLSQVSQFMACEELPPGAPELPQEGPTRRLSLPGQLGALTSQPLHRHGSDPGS
# TEST_DESCRIPTION: primary screen, population patch clamp on CHO cells stably expressing hERG; higher = less effect of the substance
About 2,200 (0.71%) of roughly 310,000 compounds showed an effect of 50% or more. Effects have a minus sign here. This is one part of a sample in which strong results are shown more often than they occur.
Known hERG current change (%, negative = inhibition) at 1uM of a selection of molecules
Please give a number only; it is taken to be in %.

[Q] Entry `Cc1csc(N(C)C(=O)CSc2nnc(COc3ccccc3C)o2)n1` needs its hERG current change (%, negative = inhibition) at 1uM filled in; supply it.
[A] 6.62

[Q] Give a short answer stating reported hERG current change (%, negative = inhibition) at 1uM for `N=c1c(C(=O)NC2CCCCC2)cc2c(=O)n3ccccc3nc2n1Cc1ccccc1` .
[A] -10.1

[Q] Return hERG current change (%, negative = inhibition) at 1uM for the following molecule: `Cc1ccc(CCNC(=O)C2CCN(S(=O)(=O)N3CCC4(CC3)OCCO4)CC2)cc1`
[A] 9.02

[Q] Answer with reported hERG current change (%, negative = inhibition) at 1uM of `C[n+]1c2n(c3ccccc31)N=C(c1ccccc1)CS2.[Br-]`
[A] -17.3

----------
# TESTED_ON: human ether-à-go-go-related gene (hERG) potassium channel (human)
# TEST_DESCRIPTION: primary screen, population patch clamp on CHO cells stably expressing hERG; higher = less effect of the substance
The whole screen tested about 310,000 compounds, of which about 2,200 (0.71%) showed an effect of 50% or more. Effects have a minus sign here. Only a selection was taken, and strong results are over-represented in it overall.
The entries below come with measured hERG current change (%, negative = inhibition) at 1uM values attached.
Supply the numeric figure in %, leaving out any unit text.

# count of solved cases: 4
O=C(Nc1ccccc1N1CCCCC1)c1ccccc1F -5.76
O=C(Nc1ccccc1C(=O)N1CCCC1)c1ccc(Cl)cc1Cl 10.3
COC(=O)c1ccc(N2CCOCC2)c(NC(=O)c2cccs2)c1 0.514
O=C(Nc1cc(C(=O)N2CCCC2)ccc1N1CCCC1)c1ccccc1F -82.8

Attention now turns to another entry.
[Q] Look up and state reported hERG current change (%, negative = inhibition) at 1uM for `O=C(Nc1cc(C(=O)N2CCCC2)ccc1N1CCCC1)C1CC1`
[A] -1.85

----------
hERG current change (%, negative = inhibition) at 1uM values, listed per item
# TESTED_ON: human ether-à-go-go-related gene (hERG) potassium channel (human, UniProt Q12809)
# TEST_DESCRIPTION: primary screen, population patch clamp on CHO cells stably expressing hERG; higher = less effect of the substance
Screen size: about 310,000 compounds; about 2,200 (0.71%) showed an effect of 50% or more. The effect is printed as a negative number. This excerpt belongs to a sample that is enriched for strong results.
Entry rule: numbers only, all in %.

MOLECULE	TESTED_ON	NUMERIC_VALUE
COc1cc(C2C(C(=O)c3cccs3)=C(O)C(=O)N2c2cc(C)on2)ccc1O (centres unmarked)	human ether-à-go-go-related gene (hERG) potassium channel (human, UniProt Q12809)	2.84
COc1ccc(/C=C(\NC(=O)c2ccccc2)C(=O)N2CCN(C)CC2)cc1	human ether-à-go-go-related gene (hERG) potassium channel (human, UniProt Q12809)	-75.2
CSc1ccc(/C=C(/NC(=O)c2ccccc2)C(=O)N2CCN(C)CC2)cc1	human ether-à-go-go-related gene (hERG) potassium channel (human, UniProt Q12809)	-48.7

[Q] // fetch hERG current change (%, negative = inhibition) at 1uM given entry `CCN1CCN(Cc2cc(=O)oc3ccc(C)cc23)CC1`
[A] 11.9

[Q] Answer with reported hERG current change (%, negative = inhibition) at 1uM of `CN1CCN(C(=O)/C(=C/c2ccccc2)c2ccccc2)CC1`
[A] -33.2

----------
# TESTED_ON: human ether-à-go-go-related gene (hERG) potassium channel (human)
# TEST_DESCRIPTION: primary screen, population patch clamp on CHO cells stably expressing hERG; higher = less effect of the substance
Screen size: about 310,000 compounds; about 2,200 (0.71%) showed an effect of 50% or more. The effect is printed as a negative number. What follows is part of a selection rich in strong results, with near analogues and random picks from the rest.
METRIC: hERG current change (%, negative = inhibition) at 1uM (%)
Field: numeric (%). Do not append units.

Worked examples follow.
COMPOUND	NUMERIC_VALUE
CCN1CCN(c2cc(C)c3cc(NC(=S)N(CC)CC)ccc3n2)CC1	-8.83
CCN1CCN(c2cc(C)c3cc(NC(=S)NCCCOC)ccc3n2)CC1	12.1
O=C(CN1CCN(CC(=O)Nc2ccc(Cl)cc2)CC1)Nc1ccc(F)cc1	-86.9

[Q] Indicate the recorded hERG current change (%, negative = inhibition) at 1uM value for this compound: `CN(C)/C=N/c1cc(=O)[nH]c(=O)n1CC1CC1`
[A] 17.1

[Q] Entry `COCCNC(=S)Nc1ccc2nc(N3CCOCC3)cc(C)c2c1` needs its hERG current change (%, negative = inhibition) at 1uM filled in; supply it.
[A] 14.9

----------
# TESTED_ON: human ether-à-go-go-related gene (hERG) potassium channel (human, UniProt Q12809)
# TEST_DESCRIPTION: primary screen, population patch clamp on CHO cells stably expressing hERG; higher = less effect of the substance
Hit rate of the full screen: of about 310,000 compounds, about 2,200 (0.71%) showed an effect of 50% or more. The effect is printed as a negative number. The sample as a whole holds a higher share of strong results than the screen did.
Below, each entry is listed with its recorded hERG current change (%, negative = inhibition) at 1uM.
Number only, in %; omit the unit.

Worked cases, answers included:
MOLECULE	NUMERIC_VALUE
CCOC(=O)C1CCCCN1Cc1cc(Cl)ccc1O (centres unmarked)	4.99
C#CCn1c(=NC(=O)c2ccccc2[N+](=O)[O-])sc2cc(S(C)(=O)=O)ccc21	13.3
Nc1nc(SCC(=O)c2ccc([N+](=O)[O-])cc2)n[nH]1	1.72
Cc1ccccc1N(C(=O)Cc1cccs1)C(C(=O)NC1CCCCC1)c1cn(C)nc1C (centres unmarked)	-0.242

[Q] State its hERG current change (%, negative = inhibition) at 1uM for this molecule: CCN=C1SC(CC(=O)Nc2ccc(C(F)(F)F)cc2)C(=O)N1CC (centres unmarked)
[A] 1.51

----------
// reported hERG current change (%, negative = inhibition) at 1uM per item
# TESTED_ON: human ether-à-go-go-related gene (hERG) potassium channel (human, UniProt Q12809)
# TEST_DESCRIPTION: primary screen, population patch clamp on CHO cells stably expressing hERG; higher = less effect of the substance
About 2,200 (0.71%) of roughly 310,000 compounds showed an effect of 50% or more. The effect is printed as a negative number. The list comes from a sample in which strong results are over-represented; it also holds close analogues and randomly drawn compounds.

Worked set:
COMPOUND	TESTED_ON	RESULT
COc1ccc(C(=O)C2CN(C)CC2c2ccc(Cl)cc2)cc1 (centres unmarked)	human ether-à-go-go-related gene (hERG) potassium channel (human, UniProt Q12809)	-18.3%
COc1ccc(OCCCN2CCCC(C)C2)cc1 (centres unmarked)	human ether-à-go-go-related gene (hERG) potassium channel (human, UniProt Q12809)	-2.33%

[Q] Return reported hERG current change (%, negative = inhibition) at 1uM. Input compound: `CC(C)n1c(N2CCN(CC(=O)NCc3cccs3)CC2)nc2ccccc21`
[A] -30.9%

[Q] Item CC1CC(C)CN(CCCCOc2ccc([N+](=O)[O-])cc2)C1.O=C(O)C(=O)O (centres unmarked) : provide hERG current change (%, negative = inhibition) at 1uM
[A] -80.3%

[Q] In one line, give reported hERG current change (%, negative = inhibition) at 1uM of the entry CN1CC(C(=O)c2ccc([N+](=O)[O-])cc2)C(c2ccc(Cl)cc2)C1 (centres unmarked) .
[A] -77.1%

[Q] Entry `CN(CCc1ccccn1)Cc1ccc(Cl)cc1Cl` needs its hERG current change (%, negative = inhibition) at 1uM filled in; supply it.
[A] -54.1%

[Q] Quickly give me recorded hERG current change (%, negative = inhibition) at 1uM for COc1cccc(CNC(=O)CCC2CCCN(Cc3ccc(OC(F)F)cc3)C2)c1 (centres unmarked)
[A] -80.1%

[Q] Tell me measured hERG current change (%, negative = inhibition) at 1uM for `CN(CCc1ccccn1)Cc1ccc(Cl)cc1` please.
[A] -24.6%

----------
# TESTED_ON: human ether-à-go-go-related gene (hERG) potassium channel (human)
# TEST_DESCRIPTION: primary screen, population patch clamp on CHO cells stably expressing hERG; higher = less effect of the substance
Hit rate of the full screen: of about 310,000 compounds, about 2,200 (0.71%) showed an effect of 50% or more. Effects have a minus sign here. The list comes from a sample in which strong results are over-represented; it also holds close analogues and randomly drawn compounds.
# hERG current change (%, negative = inhibition) at 1uM per entry
Your answer should be a plain number; it is taken to be in %.

Below: 4 compounds and their reported hERG current change (%, negative = inhibition) at 1uM.
Cc1ccc(Nc2nc(N)nc(CN3CCN(Cc4ccc5c(c4)OCO5)CC3)n2)cc1Cl -34.6
COc1ccc(CN2CCN(Cc3ccc(C)cc3)CC2)c(OC)c1.O=C(O)C(=O)O -18.9
CCOc1ccccc1OCCN1CCC(Cc2ccccc2)CC1.O=C(O)C(=O)O -53.7
Nc1nc(CN2CCN(c3ccccc3F)CC2)nc(Nc2ccccc2)n1 0.21

[Q] Check the records and state hERG current change (%, negative = inhibition) at 1uM for `COc1ccc(OC)c(CN2CCC(Cc3ccccc3)CC2)c1.O=C(O)C(=O)O`
[A] -61.9

[Q] Fill in reported hERG current change (%, negative = inhibition) at 1uM for this entry: `CN1CCN(Cc2nc(N)nc(Nc3ccc4c(c3)OCCO4)n2)CC1`
[A] 3.07

[Q] Find the measured hERG current change (%, negative = inhibition) at 1uM of `COc1cc(C(C)=O)ccc1OCCN1CCC(Cc2ccccc2)CC1.O=C(O)C(=O)O` and report it.
[A] -93.3

[Q] Report measured hERG current change (%, negative = inhibition) at 1uM; entry is `Cc1cccc(Nc2nc(N)nc(CN3CCN(C)CC3)n2)c1`
[A] -5.33

[Q] Identify the reported hERG current change (%, negative = inhibition) at 1uM for the following entry. `COc1ccc(OC)c(CN2CCN(C(=O)Cc3ccccc3)CC2)c1.O=C(O)C(=O)O`
[A] 17.6
